- protocol notes: Acute toxicity in mice (LD50)
- particulars: mouse, in vivo, intravenous injection
Please respond with reported LD50 for every item in the list.
Answer shape: numeric part, then the unit.

- molecule: "Cc1ncc([N+](=O)[O-])n1CC(O)CCl (racemic) [Racemic ornidazole]"
  observed measurement: "306 mg/kg"

Below: the item to evaluate.
Endpoint output: LD50 of Cc1ncc([N+](=O)[O-])n1C[C@H](O)CCl [L-ornidazole, S-(−)-ornidazole] . Value?
332 mg/kg
